# TEST TARGET: DNA topoisomerase 2-alpha (Homo sapiens) (UniProt P11388)
# Sequence (P11388 whole entry): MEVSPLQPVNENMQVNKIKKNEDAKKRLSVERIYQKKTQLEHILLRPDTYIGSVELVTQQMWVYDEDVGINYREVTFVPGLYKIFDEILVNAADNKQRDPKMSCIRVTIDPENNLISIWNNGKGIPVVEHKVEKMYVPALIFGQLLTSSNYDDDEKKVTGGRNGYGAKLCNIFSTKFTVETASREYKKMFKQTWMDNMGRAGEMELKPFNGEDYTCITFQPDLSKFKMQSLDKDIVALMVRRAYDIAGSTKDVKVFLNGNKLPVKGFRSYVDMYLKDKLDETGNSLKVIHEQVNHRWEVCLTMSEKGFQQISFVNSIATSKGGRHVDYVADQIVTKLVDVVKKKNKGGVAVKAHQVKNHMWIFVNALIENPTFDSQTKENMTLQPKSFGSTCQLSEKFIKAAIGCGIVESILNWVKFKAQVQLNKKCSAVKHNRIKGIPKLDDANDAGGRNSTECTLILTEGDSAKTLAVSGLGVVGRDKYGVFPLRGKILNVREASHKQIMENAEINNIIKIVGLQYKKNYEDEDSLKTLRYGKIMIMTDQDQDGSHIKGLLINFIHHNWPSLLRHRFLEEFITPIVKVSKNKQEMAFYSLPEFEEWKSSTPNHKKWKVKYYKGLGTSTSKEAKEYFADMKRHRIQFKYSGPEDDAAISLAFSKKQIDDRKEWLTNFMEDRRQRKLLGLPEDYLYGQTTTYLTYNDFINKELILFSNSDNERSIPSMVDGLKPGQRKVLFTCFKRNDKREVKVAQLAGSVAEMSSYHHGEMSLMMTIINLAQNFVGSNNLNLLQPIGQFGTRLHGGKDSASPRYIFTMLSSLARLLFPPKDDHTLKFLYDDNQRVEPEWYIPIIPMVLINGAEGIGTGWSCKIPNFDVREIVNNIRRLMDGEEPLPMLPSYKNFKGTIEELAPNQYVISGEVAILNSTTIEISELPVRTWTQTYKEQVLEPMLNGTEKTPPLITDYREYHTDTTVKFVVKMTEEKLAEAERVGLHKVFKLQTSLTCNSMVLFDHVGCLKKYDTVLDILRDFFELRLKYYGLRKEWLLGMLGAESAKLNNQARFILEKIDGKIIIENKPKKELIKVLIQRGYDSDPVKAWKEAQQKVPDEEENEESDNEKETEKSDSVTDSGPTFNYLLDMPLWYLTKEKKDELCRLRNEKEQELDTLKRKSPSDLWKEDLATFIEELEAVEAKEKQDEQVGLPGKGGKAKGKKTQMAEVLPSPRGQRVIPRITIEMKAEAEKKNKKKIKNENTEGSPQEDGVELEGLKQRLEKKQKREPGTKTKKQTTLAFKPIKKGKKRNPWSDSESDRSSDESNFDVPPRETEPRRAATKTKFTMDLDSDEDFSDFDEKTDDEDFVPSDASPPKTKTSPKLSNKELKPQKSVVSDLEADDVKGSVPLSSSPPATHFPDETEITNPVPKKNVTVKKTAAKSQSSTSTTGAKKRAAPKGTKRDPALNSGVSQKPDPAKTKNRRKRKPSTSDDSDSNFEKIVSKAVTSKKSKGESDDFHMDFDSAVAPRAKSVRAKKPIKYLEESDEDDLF
# ASSAY COMMENT: Potency index, ratio of compound activity to etoposide activity for inhibition of recombinant human topoisomerase 2alpha at 20 uM
Reported Ratio by item:

# SMILES RECORD, Ratio
measured = [
    ("COc1cccc(-c2nc3ccc(C)cc3c(=O)[nH]2)c1", 0.38),
    ("O=c1[nH]c(-c2cccc3ccccc23)nc2ccc(N3CCOCC3)cc12", 0.78),
    ("Cc1ccc2c(=O)[nH]c(-c3ccccc3N(C)C)nc2c1", 0.84),
    ("COc1cccc(-c2nc3cc(C)ccc3c(=O)[nH]2)c1", 0.5),
    ("Cc1ccc2c(=O)[nH]c(-c3ccccc3C)nc2c1", 0.62),
    ("Cc1cccc(-c2nc3cc(C)ccc3c(=O)[nH]2)c1", 0.5),
]

---

# TEST TARGET: DNA topoisomerase 1 (Homo sapiens)
# ASSAY COMMENT: Potency index, ratio of compound activity to CPT activity for inhibition of recombinant human topoisomerase 1 at 100 uM
Reported Ratio by item:

# SMILES RECORD, Ratio
measured = [
    ("Cc1ccc2nc(-c3cccc(F)c3)[nH]c(=O)c2c1", 1.03),
    ("Cc1ccc2c(=O)[nH]c(-c3ccccc3F)nc2c1", 0.98),
    ("Cc1ccc2nc(-c3ccccc3F)[nH]c(=O)c2c1", 0.84),
    ("Cc1ccc2nc(-c3cccc(OC(F)(F)F)c3)[nH]c(=O)c2c1", 1.39),
    ("Cc1ccc2c(=O)[nH]c(-c3cccc(OC(F)(F)F)c3)nc2c1", 0.93),
]

---

# Tested on: HeLa
# ASSAY COMMENT: Cytotoxicity against human HeLa cells measured after 2 days by MTT assay
# Format: functional, cell-based
# TEST CONDITIONS: 48 h
Mark 1 (yes) only for IC50 values smaller than 2 µM; exact matches and larger values are 0 (no).

# MOLECULE, ASSIGNED CATEGORY
records = [
    ("Cc1ccc2c(=O)[nH]c(-c3ccccc3C)nc2c1", "0 (no)"),
    ("COc1cc([C@@H]2c3cc4c(cc3[C@@H](O[C@@H]3O[C@@H]5CO[C@@H](C)O[C@H]5[C@H](O)[C@H]3O)[C@H]3COC(=O)[C@H]23)OCO4)cc(OC)c1O [ETOPOSIDE]", "0 (no)"),
    ("Cc1ccc2nc(-c3ccccc3C(F)(F)F)[nH]c(=O)c2c1", "0 (no)"),
    ("Cc1ccc2nc(-c3ccccc3N(C)C)[nH]c(=O)c2c1", "0 (no)"),
    ("CC[C@@]1(O)C(=O)OCc2c1cc1n(c2=O)Cc2cc3ccccc3nc2-1", "1 (yes)"),
    ("Cc1ccc2nc(-c3cccc(C(F)(F)F)c3)[nH]c(=O)c2c1", "0 (no)"),
    ("Cc1cccc(-c2nc3cc(C)ccc3c(=O)[nH]2)c1", "0 (no)"),
    ("O=c1[nH]c(-c2cccc3ccccc23)nc2ccc(N3CCOCC3)cc12", "1 (yes)"),
    ("COc1cccc(-c2nc3cc(C)ccc3c(=O)[nH]2)c1", "0 (no)"),
]

---

# Test system: T47D
# ASSAY COMMENT: Cytotoxicity against human T47D cells measured after 2 days by MTT assay
# Format: functional, cell-based
# TEST CONDITIONS: 48 h
pIC50: −log10 of the molar value.

# SMILES RECORD, pIC50
data = [
    ("CCN(CC)c1ccc2nc(-c3ccccc3C(F)(F)F)[nH]c(=O)c2c1", 5.59),
    ("Cc1ccc2nc(-c3cccc(OC(F)(F)F)c3)[nH]c(=O)c2c1", "< 4.30"),
    ("Cc1ccc2nc(-c3ccccc3C(F)(F)F)[nH]c(=O)c2c1", "< 4.30"),
    ("COc1cccc2c1C(=O)c1c(O)c3c(c(O)c1C2=O)C[C@@](O)(C(=O)CO)C[C@@H]3O[C@H]1C[C@H](N)[C@H](O)[C@H](C)O1", 5.72),
    ("Cc1ccc2c(=O)[nH]c(-c3cccc4ccccc34)nc2c1", "< 4.30"),
    ("CCN(CC)c1ccc2nc(-c3ccccc3N(C)C)[nH]c(=O)c2c1", 5.66),
    ("Cc1ccc2c(=O)[nH]c(-c3cccc(F)c3)nc2c1", "< 4.30"),
    ("Cc1ccc2nc(-c3cccc(C(F)(F)F)c3)[nH]c(=O)c2c1", "< 4.30"),
    ("Cc1cccc(-c2nc3cc(C)ccc3c(=O)[nH]2)c1", "< 4.30"),
    ("Cc1ccc2nc(-c3cccc4ccccc34)[nH]c(=O)c2c1", "< 4.30"),
    ("O=c1[nH]c(-c2cccc3ccccc23)nc2ccc(N3CCOCC3)cc12", "< 4.30"),
    ("Cc1ccc2c(=O)[nH]c(-c3cccc(C(F)(F)F)c3)nc2c1", "< 4.30"),
    ("CC[C@@]1(O)C(=O)OCc2c1cc1n(c2=O)Cc2cc3ccccc3nc2-1", 5.79),
    ("Cc1cccc(-c2nc3ccc(C)cc3c(=O)[nH]2)c1", "< 4.30"),
    ("O=c1[nH]c(-c2cccc3ccccc23)nc2ccc(N3CCCCC3)cc12", "< 4.30"),
    ("CN(C)c1ccc2nc(-c3cccc4ccccc34)[nH]c(=O)c2c1", "< 4.30"),
    ("Cc1ccc2c(=O)[nH]c(-c3ccccc3C)nc2c1", "< 4.30"),
    ("COc1cccc(-c2nc3ccc(N4CCCCC4)cc3c(=O)[nH]2)c1OC", 4.98),
    ("Cc1ccc2nc(-c3ccccc3C)[nH]c(=O)c2c1", "< 4.30"),
    ("Cc1ccc2c(=O)[nH]c(-c3ccccc3F)nc2c1", "< 4.30"),
    ("CCN(CC)c1ccc2nc(-c3ccccc3OC(F)(F)F)[nH]c(=O)c2c1", 5.78),
    ("Cc1ccc2nc(-c3cccc(F)c3)[nH]c(=O)c2c1", "< 4.30"),
]
